# System: A498 renal
# measurementNotes: NCI tumour cell line growth inhibition, 48 h
Provide the reported log10 of TGI of each item.
Hey, these are logged values: log10 of TGI, µM being the unit before logging.

Guide cases for log10 of TGI, answers given:
{"compound": "COc1ccc2c(CNCCCCO)cc3cc4c(cc3c2c1)OCO4", "log10 of TGI": 0.47}
{"compound": "N#CC(C(=O)c1ccccc1F)c1nc2cc(C(F)(F)F)ccc2s1 (centres undefined)", "log10 of TGI": 1.66}
{"compound": "CC1=C(C(=O)Nc2ccc(F)c(Cl)c2)C(c2cccc(Cl)c2)NC(=O)N1 (centres undefined)", "log10 of TGI": 1.19}
{"compound": "Oc1ccc2ccccc2c1/C=N\\Nc1ccccn1", "log10 of TGI": 0.85}
{"compound": "O=[N+]([O-])c1ccc2[nH]cc(-c3c4ccccc4cc4[nH]c5ccc([N+](=O)[O-])cc5c34)c2c1", "log10 of TGI": 0.63}
{"compound": "C[n+]1c2ccccc2c(NC2CCNCC2)c2[nH]c3ccccc3c21", "log10 of TGI": 0.70}
{"compound": "CCCCCCCCCCCCCC(=O)OCC1OC(OC)C(NC(=O)N(CCCl)N=O)C(O)C1O (centres undefined)", "log10 of TGI": 1.82}
{"compound": "Cc1ccc(Cl)cc1Nc1nc(C(F)(F)F)ccc1C(=O)Oc1ccc(Cl)cc1", "log10 of TGI": 1.52}

For every item below, please supply its log10 of TGI.
1. CCOc1ccc(NC(=O)C2=C(C)NC(C)=C(C(=O)Nc3ccc(OCC)cc3)C2c2ccc([N+](=O)[O-])cc2)cc1
2. COc1cc(O)c(C(=O)/C=C/c2ccc(O)cc2)cc1Oc1ccc(C(=O)/C=C/c2ccc(O)cc2)c(O)c1

Result:
1. 1.82
2. 0.75
